Field: GI50. Provide a value for each of the compounds that follow.
System: A498
ASSAY OVERVIEW: NCI tumour cell line growth inhibition, 48 h
Calls of active or inactive are those of the source. Rule as the data show it: active = GI50 up to about 1.1 µM and inactive = higher.

Given the entry "O=P1(O)C=CC2(CCCC2)O1" , report its measured GI50.
> 100 µM (inactive)

Proceed to COc1cc(NCC2COc3c(ccc(OC)c3OC)C2=O)c([N+](=O)[O-])cc1OC (configuration not stated)
> 100 µM (inactive)

Proceed to "Cc1csc(-c2cn(C)c3c2C(=O)C(=N)C=C3O)n1"
12.2 µM (inactive)

Proceed to "Cc1nc2c(=O)[nH]c(=O)n(C)c2[nH]c1=O.c1ccncc1"
> 100 µM (inactive)

Proceed to COc1cc(C2c3cc4c(cc3OC(N3CCCCC3)C2C)OCO4)cc(OC)c1O (configuration not stated)
10.9 µM (inactive)

Proceed to "C/C(CN1C(=O)c2ccccc2C1=O)=N\NS(=O)(=O)c1ccc(Br)cc1"
> 100 µM (inactive)

Proceed to CCOP1(=O)CC(C)=C(Cl)C(OC)C1 (configuration not stated)
> 100 µM (inactive)

Proceed to CC(C)(C)c1cc(C(CO)OCCOCCO)cc(C(C)(C)C)c1O (configuration not stated)
> 100 µM (inactive)

Proceed to "CNS(=O)(=O)NN(C)S(=O)(=O)c1ccc(C)cc1"
> 100 µM (inactive)

Proceed to "Clc1ccc(-c2cc(-c3nc4ccccc4[nH]3)no2)cc1"
18.9 µM (inactive)

Proceed to "COc1ccc(NN=C2C(=O)CCC2=O)cc1"
55 µM (inactive)

Proceed to "Clc1ccc(-n2nnc(C3=NCCN3)c2-c2ccccc2)cc1"
> 100 µM (inactive)

Proceed to "Cc1nc(C)c(N2CCN(S(=O)(=O)N(Cc3ccccc3)Cc3ccccc3)CC2)c(O)n1"
> 51.9 µM (inactive)

Proceed to COc1ccc2oc(S(=O)(=O)N3CC(CCl)c4ccc(N)cc43)cc2c1 (configuration not stated)
1.48 µM (inactive)

Proceed to COC(=O)C1(Cc2ccccc2)Cc2cc3c(cc2C1=O)CCC3 (configuration not stated)
28.2 µM (inactive)

Proceed to "O=C(c1ccc(Cl)cc1)N(C(=O)N1CCCCC1)c1ccccc1"
> 100 µM (inactive)

Proceed to COc1cc2c(cc1OC)C13CCN4CC5CCOC6CC(=O)N2C1C6C5CC43 (configuration not stated)
> 100 µM (inactive)

Proceed to "COc1ccc(NC(=S)NN=C(C)c2cccc(C(C)=NNC(=S)Nc3ccc(OC)cc3)n2)cc1"
> 100 µM (inactive)

Proceed to OCC1OC(NC(=S)NCSCCC(F)(F)C(F)(F)C(F)(F)C(F)(F)C(F)(F)C(F)(F)F)C(O)C(O)C1O (configuration not stated)
1.77 µM (inactive)

Proceed to "CCOC(=O)C(=CNC(=S)c1ccncc1)C(=O)OCC"
> 100 µM (inactive)

Proceed to "CC[C@@H](/C=C\CCC1(C[C@@H](N)CCC=C(C)C)OCCO1)O[Si](C(C)C)(C(C)C)C(C)C"
18.2 µM (inactive)

Proceed to CC(C)NCC(O)c1cc(OCc2ccccc2)c(OCc2ccccc2)cc1NC(=O)CCC(=O)O (configuration not stated)
11 µM (inactive)
